B1: tRNA (parent)
chain: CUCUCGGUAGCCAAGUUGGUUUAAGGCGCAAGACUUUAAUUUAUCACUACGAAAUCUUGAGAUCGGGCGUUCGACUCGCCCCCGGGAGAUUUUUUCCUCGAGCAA

variants of: B1; test: nonsense suppression (GFP-seq) (ratio to wild type); higher = more function; SUP4oc tRNA, yeast GFP reporter sort-seq
This sample holds only a part of the variants without activity.
measure: nonsense suppression

INSERT INTO assay_data (variantdescription, measuredvalue) VALUES
  ('C3A U35G', '≤ 0.026'),
  ('U8G G18C G59A', '≤ 0.026'),
  ('C1U G26A U57C', '≤ 0.026'),
  ('U17C C29G', '≤ 0.026'),
  ('U20G A23U G88U', '≤ 0.026'),
  ('G10C G26U G86A G88A', '≤ 0.026'),
  ('U21G U70C', '≤ 0.026'),
  ('C12U C29G U35A', '≤ 0.026'),
  ('A14G G19U A23G A30G C75U C82U', '≤ 0.026'),
  ('U8G A9U C11A G26U', '≤ 0.026'),
  ('C64G G66U A87G', '≤ 0.026'),
  ('U4A U21G C79U', '≤ 0.026'),
  ('A9G A54U U70C', '≤ 0.026'),
  ('G26U G28U', '≤ 0.026'),
  ('G15C U22G A23C', '≤ 0.026'),
  ('C3G G84U', '≤ 0.026'),
  ('U17C A30U', 0.16),
  ('A23U G65C C72A', '≤ 0.026'),
  ('G26C G78U C82A', '≤ 0.026'),
  ('U63G A89G', 0.0674),
  ('U8C A31G', 0.0327),
  ('U22G A54U', 1.12),
  ('G10U A13C', 0.0296),
  ('C5G G25A A89G', '≤ 0.026'),
  ('A30C A54U A60G A74U', '≤ 0.026'),
  ('A14G G86U', '≤ 0.026'),
  ('A13C U76A', 0.282),
  ('U17C U20G', 1.25),
  ('U57A G85U', 0.0736),
  ('A31U U70C', '≤ 0.026'),
  ('C1G C27A U55G', '≤ 0.026'),
  ('C5G C12G', 0.174),
  ('A54C U63C', 0.729),
  ('G15C G25U', '≤ 0.026'),
  ('U17C G84A', 0.048),
  ('U2A G65C', '≤ 0.026'),
  ('C3G C11A C81G', '≤ 0.026'),
  ('A23U C80G', '≤ 0.026'),
  ('U21C A24U', 0.194),
  ('U35C G73A', '≤ 0.026'),
  ('U17C C68A C82U', '≤ 0.026'),
  ('A60C A62C A87G', '≤ 0.026'),
  ('U21A G66U C80G', 0.219),
  ('U70A C80U', '≤ 0.026'),
  ('A9U A14U', 0.0588),
  ('A24C G32U', 0.043),
  ('U16C U21C', 1.03);
